Tested on: recombinant NL-Rluc virus
Run Description: Inhibition of HIV replication (NL-RLuc virus, Renilla luciferase)
Format: cell-based
Condition Label: Human immunodeficiency virus 1, read-out: antiviral actitively
Assay Readout: EC50

1. Cc1ncn(-c2cc(F)ccc2CNC(=O)c2nc3n(c(=O)c2O)CCOCC32CCOCC2)n1 :: 0.001 to 0.01 µM
2. Cc1nc(C)n(-c2cc(F)ccc2CNC(=O)c2nc3n(c(=O)c2O)CCOCC3(C)C)n1 :: 0.01 to 0.05 µM
3. CC1(C)COCCn2c1nc(C(=O)NCc1ccc(F)cc1)c(O)c2=O :: 0.01 to 0.05 µM
4. Cc1cnnn1-c1cc(F)ccc1CNC(=O)c1nc2n(c(=O)c1O)CCOCC21CCOCC1 :: 0.01 to 0.05 µM
5. CC1(C)COCCn2c1nc(C(=O)NCc1ccc(F)cc1-n1cncn1)c(O)c2=O :: 0.001 to 0.01 µM

For each of the molecules below, state EC50.
1. Cc1ncnn1-c1cc(F)ccc1CNC(=O)c1nc2n(c(=O)c1O)CCOCC21CCC1
2. CS(=O)(=O)c1cc(F)ccc1CNC(=O)c1nc2n(c(=O)c1O)CCOCC21CCC1

Result:
0.001 to 0.01 µM
0.001 to 0.01 µM

---

Exercise: for every item that follows, state its recorded EC50.
Tested on: recombinant NL-Rluc virus
Run Description: Inhibition of HIV replication (NL-RLuc virus, Renilla luciferase)
Assay type: cell-based
Condition Label: Human immunodeficiency virus 1, read-out: antiviral actitively

Field: example entries. Status: answers known.
1. Cc1nc(C)n(-c2cc(F)ccc2CNC(=O)c2nc3n(c(=O)c2O)CCOCC32CCC2)n1 :: 1 to 10 nM
2. O=C(NCc1ccc(F)cc1)c1nc2n(c(=O)c1O)CCOCC21CCOCC1 :: 10 to 50 nM
3. Cc1ncnn1-c1cc(F)ccc1CNC(=O)c1nc2n(c(=O)c1O)CCOCC2(C)C :: 1 to 10 nM
4. O=C(NCc1ccc(F)cc1-n1cncn1)c1nc2n(c(=O)c1O)CCOCC21CCCC1 :: 1 to 10 nM
5. Cc1ncnn1-c1cc(F)ccc1CNC(=O)c1nc2n(c(=O)c1O)CCOCC21CCCC1 :: 1 to 10 nM
6. CN1CCN(c2cc(F)ccc2CNC(=O)c2nc3n(c(=O)c2O)CCOCC32CCOCC2)C1=O :: 1 to 10 nM

For each of the molecules below, state EC50.
1. Cc1nc(-c2cc(F)ccc2CNC(=O)c2nc3n(c(=O)c2O)CCOCC32CCOCC2)n(C)n1
2. Cc1nc(C)n(-c2cc(F)ccc2CNC(=O)c2nc3n(c(=O)c2O)CCOCC32CCCC2)n1

Result:
1. 10 to 50 nM
2. 1 to 10 nM

For each of the molecules below, state EC50.
1. O=C(NCc1ccc(F)cc1)c1nc2n(c(=O)c1O)CCOCC2
2. Cn1cnn(-c2cc(F)ccc2CNC(=O)c2nc3n(c(=O)c2O)CCOCC32CCOCC2)c1=O
3. CS(=O)(=O)c1cc(F)ccc1CNC(=O)c1nc2n(c(=O)c1O)CCOCC21CCCC1

Result:
1. > 50 nM
2. 1 to 10 nM
3. 1 to 10 nM

For each of the molecules below, state EC50.
1. O=C(NCc1ccc(F)cc1)c1nc2n(c(=O)c1O)CCOCC21CCCC1
2. Cn1nnc(-c2cc(F)ccc2CNC(=O)c2nc3n(c(=O)c2O)CCOCC32CCCC2)n1
3. CC1(C)COCCn2c1nc(C(=O)NCc1ccc(F)cc1N1CCCC1=O)c(O)c2=O
4. COCc1ncn(-c2cc(F)ccc2CNC(=O)c2nc3n(c(=O)c2O)CCOCC32CCOCC2)n1
5. COP(=O)(OC)c1cc(F)ccc1CNC(=O)c1nc2n(c(=O)c1O)CCOCC2(C)C
6. Cc1n[nH]c(-c2cc(F)ccc2CNC(=O)c2nc3n(c(=O)c2O)CCOCC32CCOCC2)n1
7. CC1(C)COCCn2c1nc(C(=O)NCc1ccc(F)cc1S(C)(=O)=O)c(O)c2=O

Result:
1 to 10 nM
1 to 10 nM
1 to 10 nM
10 to 50 nM
1 to 10 nM
1 to 10 nM
1 to 10 nM
